Overview of recorded pKd for various binders
- experimental.system: T1, soluble recombinant human PD-1 receptor (human, UniProt Q15116 25-167, limits assumed)
- T1 construct: also called human PD-1 receptors
- T1 sequence (Q15116 25-167 limits assumed): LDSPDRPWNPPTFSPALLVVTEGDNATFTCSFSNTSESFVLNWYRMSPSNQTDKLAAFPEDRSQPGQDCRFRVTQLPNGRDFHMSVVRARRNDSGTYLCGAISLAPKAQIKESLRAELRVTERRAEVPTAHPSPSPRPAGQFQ
- experiment.description: BIACORE T-200 SPR, PD-1 immobilised on CM5, steady state
pKd is defined as minus the log10 of a concentration measured in mol/L.

Please review the entries below; each comes with its answer.
| binder | pKd |
| --- | --- |
| QTRTVPMPKIHHPPWQNVVP (Found by phage display) [peptide QP20] | 4.97 |
| WNLPASFHNHHIRPHEHEWIQ (also called WQ-21) [peptide WQ20] | 3.52 |
| SSYHHFKMPELHFGKNTFHQ (Found by phage display) [peptide SQ20] | 5.29 |

INPUT: Consider the binder shown here: HHHQVYQVRSHWTGMHSGHD (Found by phage display) [peptide HD20] What is its recorded pKd?
OUTPUT: 5.47
